B1: Caulobacter ParB omega fusion; a variant is named by its letters at X, in order, B8GW30 (parent)
chain: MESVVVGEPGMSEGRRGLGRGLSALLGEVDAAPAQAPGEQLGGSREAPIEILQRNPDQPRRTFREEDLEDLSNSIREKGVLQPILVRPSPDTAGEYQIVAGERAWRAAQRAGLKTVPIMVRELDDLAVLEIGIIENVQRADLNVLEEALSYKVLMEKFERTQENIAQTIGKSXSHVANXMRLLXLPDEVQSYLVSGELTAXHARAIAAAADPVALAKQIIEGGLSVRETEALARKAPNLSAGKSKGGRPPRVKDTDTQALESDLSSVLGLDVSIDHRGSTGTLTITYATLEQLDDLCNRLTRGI

Variants of: B1
Experiment: one-hybrid fitness for binding parS DNA (scaled: cognate 1, non-cognate 0); higher = stronger binding
Conditions: with parS DNA site
Whole data set: some 81,000 sequences, median “one-hybrid fitness for binding parS DNA” near -0.17, cut for the highest 2% near 0.51. Only a selection was taken, and the highest values are over-represented in it overall.
Would you kindly list one-hybrid fitness for binding parS DNA for each of these variants?

Example cases with answers are listed next.
| MUTATION_KEY | one-hybrid fitness for binding parS DNA |
| --- | --- |
| RMHA | 0.603 |
| RHHA | 0.526 |
| HLHN | ≤ 0.2 |
| DDYL | ≤ 0.2 |
| CTSH | ≤ 0.2 |
| RWLK | ≤ 0.2 |
| TTVP | ≤ 0.2 |
| HNSC | ≤ 0.2 |

Report one-hybrid fitness for binding parS DNA for each item below.
1. RWLC
2. DTHA
3. IINN

Out:
1: 0.658; 2: ≤ 0.2; 3: ≤ 0.2

Below is a list of variants. For each, state its recorded one-hybrid fitness for binding parS DNA.
1. RWGN
2. SQTL

Out:
["≤ 0.2", "≤ 0.2"]
